Measured tissue uptake at 4 h values are reported for all entries that follow.
Assay: in vivo
Conditions: CD1 nude, mouse, 0.5 nmol/mouse, total radioactivity, Lung uptake
The reply should be a number in %ID/g, with the unit left off.

Before answering, review these 3 worked examples.
| Molecule | tissue uptake at 4 h [%ID/g] |
| --- | --- |
| Cc1ccc(CCCC(=O)NCCOCCOCCOCCOCCOCCC(=O)NCCCC[C@H](NC(=O)CN2CCN(CC(=O)O)CCN(CC(=O)O)CCN(CC(=O)O)CC2)C(=O)N[C@@H](CC(=O)O)C(=O)N[C@@H](CC2CCCCC2)C(=O)N[C@@H](Cc2ccccc2)C(=O)N[C@H](CO)C(=O)N[C@H](CCCNC(=N)N)C(=O)N[C@@H](Cc2ccc(O)cc2)C(=O)N[C@@H](CC(C)C)C(=O)N[C@@H](Cc2c[nH]c3ccccc23)C(=O)N[C@@H](CO)C(N)=O)cc1 [[^177Lu]Lu-uPAR-18, metal not drawn] | 2.1 |
| Cc1ccc(CCCC(=O)NCCOCCOCCOCCOCCC(=O)NC[C@H](NC(=O)CN2CCN(CC(=O)O)CCN(CC(=O)O)CCN(CC(=O)O)CC2)C(=O)N[C@@H](CC(=O)O)C(=O)N[C@@H](CC2CCCCC2)C(=O)N[C@@H](Cc2ccccc2)C(=O)N[C@H](CO)C(=O)N[C@H](CCCNC(=N)N)C(=O)N[C@@H](Cc2ccc(O)cc2)C(=O)N[C@@H](CC(C)C)C(=O)N[C@@H](Cc2c[nH]c3ccccc23)C(=O)N[C@@H](CO)C(N)=O)cc1 [[^177Lu]Lu-uPAR-14, metal not drawn] | 3 |
| Cc1ccc(CCCC(=O)NCCOCCOCCOCCOCCC(=O)NCCCC[C@H](NC(=O)CN2CCN(CC(=O)O)CCN(CC(=O)O)CCN(CC(=O)O)CC2)C(=O)N[C@@H](CC(=O)O)C(=O)N[C@@H](CC2CCCCC2)C(=O)N[C@@H](Cc2ccccc2)C(=O)N[C@H](CO)C(=O)N[C@H](CCCNC(=N)N)C(=O)N[C@@H](Cc2ccc(O)cc2)C(=O)N[C@@H](CC(C)C)C(=O)N[C@@H](Cc2c[nH]c3ccccc23)C(=O)N[C@@H](CO)C(N)=O)cc1 [[^177Lu]Lu-uPAR-11, metal not drawn] | 3.1 |

Turning now to a further record.
[in] For Cc1ccc(CCCC(=O)NCCOCCOCCOCCOCCC(=O)NCCCC[C@H](NC(=O)CC[C@H](C(=O)O)N2CCN(CC(=O)O)CCN(CC(=O)O)CCN(CC(=O)O)CC2)C(=O)N[C@@H](CC(=O)O)C(=O)N[C@@H](CC2CCCCC2)C(=O)N[C@@H](Cc2ccccc2)C(=O)N[C@H](CO)C(=O)N[C@H](CCCNC(=N)N)C(=O)N[C@@H](Cc2ccc(O)cc2)C(=O)N[C@@H](CC(C)C)C(=O)N[C@@H](Cc2c[nH]c3ccccc23)C(=O)N[C@@H](CO)C(N)=O)cc1 [[^177Lu]Lu-uPAR-17, metal not drawn] , write its tissue uptake at 4 h.
[out] 3

###

Test: in vivo
Settings: CD1 nude, mouse, 0.5 nmol/mouse, total radioactivity, Heart uptake
Endpoint label: tissue uptake at 1 h (%ID/g)
Supply the numeric figure in %ID/g, leaving out any unit text.

[in] Tell me tissue uptake at 1 h reported for Cc1ccc(CCCC(=O)NCCOCCOCCOCCOCCC(=O)NCCCC[C@H](NC(=O)CN2CCN(CC(=O)O)CCN(CC(=O)O)CCN(CC(=O)O)CC2)C(=O)N[C@@H](CC(=O)O)C(=O)N[C@@H](CC2CCCCC2)C(=O)N[C@@H](Cc2ccccc2)C(=O)N[C@H](CO)C(=O)N[C@H](CCCNC(=N)N)C(=O)N[C@@H](Cc2ccc(O)cc2)C(=O)N[C@@H](CC(C)C)C(=O)N[C@@H](Cc2c[nH]c3ccccc23)C(=O)N[C@@H](CO)C(N)=O)cc1 [[^177Lu]Lu-uPAR-11, metal not drawn]
[out] 4.9
